src = paper PMC6321168

Assay: Fecal excretion study in rats after oral NS, SF or CNS (LC–MS/MS)
Type: in vivo
Conditions: male, Sprague Dawley; rat feces, oral CNS 110 mg/kg, 36 h
recorded.endpoint: concentration at 36 h (ng/mL)
Answer in ng/mL, number only, no unit symbol.

Reference set (3 entries):
INPUT: Quick check: concentration at 36 h of CC(C)=CCC[C@](C)(O[C@@H]1O[C@H](CO)[C@@H](O)[C@H](O)[C@H]1O)[C@H]1CC[C@]2(C)[C@@H]1[C@H](O)C[C@@H]1[C@@]3(C)CC[C@H](O[C@@H]4O[C@H](CO)[C@@H](O)[C@H](O)[C@H]4O[C@@H]4O[C@H](CO)[C@@H](O)[C@H](O)[C@H]4O)C(C)(C)[C@@H]3CC[C@]12C [ginsenoside Rd] ?
OUTPUT: 653

INPUT: Item under review: CC(C)=CCC[C@](C)(O[C@@H]1O[C@H](CO[C@@H]2O[C@H](CO)[C@@H](O)[C@H](O)[C@H]2O)[C@@H](O)[C@H](O)[C@H]1O)[C@H]1CC[C@]2(C)[C@@H]1[C@H](O)C[C@@H]1[C@@]3(C)CC[C@H](O[C@@H]4O[C@H](CO)[C@@H](O)[C@H](O)[C@H]4O[C@@H]4O[C@H](CO)[C@@H](O)[C@H](O)[C@H]4O)C(C)(C)[C@@H]3CC[C@]12C [ginsenoside Rb1] . Reported concentration at 36 h?
OUTPUT: 548

INPUT: Bench note: what concentration at 36 h did CC(C)=CCC[C@](C)(O[C@@H]1O[C@H](CO)[C@@H](O)[C@H](O)[C@H]1O)[C@H]1CC[C@]2(C)[C@@H]1[C@H](O)C[C@@H]1[C@@]3(C)CC[C@H](O)C(C)(C)[C@@H]3[C@@H](O[C@@H]3O[C@H](CO)[C@@H](O)[C@H](O)[C@H]3O)C[C@]12C [ginsenoside Rg1] show?
OUTPUT: 959

API: the following record is the query input.
INPUT: Look up concentration at 36 h for this compound: CC(C)=CCC[C@](C)(O[C@@H]1O[C@H](CO)[C@@H](O)[C@H](O)[C@H]1O)[C@H]1CC[C@]2(C)[C@@H]1[C@H](O)C[C@@H]1[C@@]3(C)CC[C@H](O)C(C)(C)[C@@H]3[C@@H](O[C@@H]3O[C@H](CO)[C@@H](O)[C@H](O)[C@H]3O[C@@H]3O[C@@H](C)[C@H](O)[C@@H](O)[C@H]3O)C[C@]12C [ginsenoside Re]
OUTPUT: 367
